- target-of-assay: recombinant human 15-PGDH (Homo sapiens, UniProt P15428)
- Construct: purchased R&D Systems
- Sequence (P15428 whole entry): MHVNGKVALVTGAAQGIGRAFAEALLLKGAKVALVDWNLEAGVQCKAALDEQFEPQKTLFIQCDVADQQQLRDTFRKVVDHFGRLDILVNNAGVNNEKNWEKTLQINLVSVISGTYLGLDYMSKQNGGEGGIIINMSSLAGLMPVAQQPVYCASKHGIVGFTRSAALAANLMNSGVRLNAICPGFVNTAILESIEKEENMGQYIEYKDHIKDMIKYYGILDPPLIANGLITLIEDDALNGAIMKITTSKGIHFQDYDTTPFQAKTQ
- procedure-details: 15-PGDH enzyme inhibition test
- Format: biochemical
- condition-label: 4 nM recombinant human 15-PGDH, 30 μM PGE2, 1 mM NAD+, 60 minutes after starting the reaction; read-out: IC50 Value
- Procedure: 15-PGDH Enzyme Inhibition Test A test compound and 4 nM recombinant human 15-PGDH (R&D Systems) were added, in 50 mM Tris-HCl (pH 8.0) containing 0.01% TWEEN 20 (Sigma) and 0.01% bovine gamma globulin (Sigma), to a 384-well Flat Bottom Black plate (Corning, 3820), and the resultant was allowed to stand still at room temperature for 12 minutes, and 30 μM PGE2 (Cayman Chemical) and 1 mM NAD+ (Sigma) were added thereto to start the reaction. […]
pIC50: −log10 of the molar value.
Here the recorded pIC50 is given for each entry.

{"compound": "C[C@@H]1CCCN1C(=O)c1cnc2c(c1)OCCN2c1ccn2c(=O)n(C)nc2c1 [Example 8-22]", "target-of-assay": "recombinant human 15-PGDH (Homo sapiens, UniProt P15428)", "endpoint-value": "7.00 to 8.00"}

Field request: pIC50 | item: CCN1Cc2cc(N3CCCc4cc(C(=O)N5CCc6ccccc6C5)cnc43)ccc2C1=O [Example 8-76]
> 8.00

Field request: pIC50 | item: CN1Cc2cc(N3CCOc4cc(C(=O)N5CCC[C@@H](C(F)F)C5)cnc43)ccc2C1=O [Example 8-205]
> 8.00

----------
- target-of-assay: recombinant human 15-PGDH (Homo sapiens)
- Construct: purchased R&D Systems
- procedure-details: 15-PGDH enzyme inhibition test
- Type: biochemical
- condition-label: 4 nM recombinant human 15-PGDH, 30 μM PGE2, 1 mM NAD+, 60 minutes after starting the reaction; read-out: IC50 Value
test-readout: IC50

Some entries whose results are on file:
{"compound": "O=C(O)c1ccc(N2CCOc3cc(C(=O)N4CCCCC4)cnc32)cc1Cl", "IC50": "< 10 nM"}
{"compound": "C[C@H]1CCCN(C(=O)c2cnc3c(c2)CCCN3c2ccn3c(=O)n(C)nc3c2)C1", "IC50": "< 10 nM"}
{"compound": "CC1CN(C(=O)c2cnc3c(c2)OCCN3c2ccn3c(=O)n(C)nc3c2)CCC1(F)F (centres unmarked)", "IC50": "< 10 nM"}
{"compound": "O=C(c1cnc2c(c1)OCCN2c1ccn2c(=O)[nH]nc2c1)N1CCCCC1", "IC50": "< 10 nM"}
{"compound": "O=C(c1cnc2c(c1)CCCN2c1cc2c(cn1)C(=O)N(C1COC1)C2)N1CCC(F)(F)CC1", "IC50": "10 to 100 nM"}
{"compound": "Cn1ccc2cc(N3CCCc4cc(C(=O)N5CCC(F)(F)CC5)cnc43)ccc2c1=O", "IC50": "< 10 nM"}
{"compound": "COCCN1Cc2cc(N3CCCc4cc(C(=O)N5CCCCC5)cnc43)ncc2C1=O", "IC50": "10 to 100 nM"}
{"compound": "CCN1Cc2cc(N3CCCc4cc(C(=O)N5CCN(C(C)=O)CC5)cnc43)ccc2C1=O", "IC50": "> 100 nM"}
{"compound": "CCN1Cc2cc(N3CCCc4cc(C(=O)N5CCCC(C)(F)C5)cnc43)ccc2C1=O (centres unmarked)", "IC50": "< 10 nM"}
{"compound": "CNC(=O)c1ccc(N2CCOc3cc(C(=O)N4CCCCC4)cnc32)cn1", "IC50": "< 10 nM"}

Field request: IC50 | item: `COC(=O)Cn1nc2cc(N3CCOc4cc(C(=O)N5CCCCC5)cnc43)ccn2c1=O`
< 10 nM

Field request: IC50 | item: `Cc1cc(N2CCOc3cc(C(=O)N4CCCCC4)cnc32)ccc1C(=O)O`
< 10 nM
